# subject_of_test: T1, Cbz-Ala-Ala-AAsn-CH═CH-CONHCH2CH2Ph
# T1 chain: AAN
reported_metric: kobs/[I]

[
  {
    "protein": "Papain (protein) IPEYVDWRQKGAVTPVKNQGSCGSCWAFSAVVTIEGIIKIRTGNLNEYSEQELLDCDRRSYGCNGGYPWSALQLVAQYGIHYRNTYPYEGVQRYCRSREKGPYAAKTDGVRQVQPYNEGALLYSIANQPVSVVLEAAGKDFQLYRGGIFVGPCGNKVDHAVAAVGYGPNYILIKNSWGTGWGENGYIRIKRGTGNSYGVCGLYTSSFYPVKN",
    "result": "12 M⁻¹ s⁻¹"
  },
  {
    "protein": "Caspase-8 (protein) SESQTLDKVYQMKSKPRGYCLIINNHNFAKAREKVPKLHSIRDRNGTHLDAGALTTTFEELHFEIKPHDDCTVEQIYEILKIYQLMDHSNMDCFICCILSHGDKGIIYGTDGQEAPIYELTSQFTGLKCPSLAGKPKVFFIQACQGDNYQKGIPVETDSEEQPYLEMDLSSPQTRYIPDEADFLLGMATVNNCVSYRNPAEGTWYIQSLCQSLRERCPRGDDILTILTEVNYEVSNKDDKKNMGKQMPQPTFTLRKKLVFPSD",
    "result": "NI"
  },
  {
    "protein": "Caspase-6 (protein) AFYKREMFDPAEKYKMDHRRRGIALIFNHERFFWHLTLPERRGTCADRDNLTRRFSDLGFEVKCFNDLKAEELLLKIHEVSTVSHADADCFVCVFLSHGEGNHIYAYDAKIEIQTLTGLFKGDKCHSLVGKPKIFIIQACRGNQHDVPVIPLDVVDNQTEKLDTNITEVDAASVYTLPAGADFLMCYSVAEGYYSHRETVNGSWYIQDLCEMLGKYGSSLEFTELLTLVNRKVSQRRVDFCKDPSAIGKKQVPCFASMLTKKLHFFPKSN",
    "result": "NI"
  },
  {
    "protein": "Caspase-3 (protein) SGISLDNSYKMDYPEMGLCIIINNKNFHKSTGMTSRSGTDVDAANLRETFRNLKYEVRNKNDLTREEIVELMRDVSKEDHSKRSSFVCVLLSHGEEGIIFGTNGPVDLKKITNFFRGDRCRSLTGKPKLFIIQACRGTELDCGIETDSGVDDDMACHKIPVEADFLYAYSTAPGYYSWRNSKDGSWFIQSLCAMLKQYADKLEFMHILTRVNRKVATEFESFSFDATFHAKKQIPCIVSMLTKELYFYH",
    "result": "NI"
  }
]
